Property: IC50, IL-6 secretion by MEF cells, cytokine at 25 ng/ml; scope: individual binders
TESTED_TARGET: cynomolgus IL-17A/IL-17F heterodimer (cynomolgus)
TEST_DETAILS: cell-based or functional assay
READOUT_KIND: IC50, IL-6 secretion by MEF cells, cytokine at 25 ng/ml (µM)

{"BINDER": "29D8 antibody (antibody, IgG1, V domains shown) VH: QVQLVQSGAEVKKPGASVKVSCKAFAYTFSTYGISWVRQAPGQGLEWMGWISAYNSNTNYAQKVQGRITMTTDTSTRTAYMELRGLRSDDTAVYFCATFFGGHSGYHYGLDVWGQGTTVTVSS VL: EIVLTQSPATLSLSPGERATLSCRASQSVSSYLAWYQQKPGQAPRLLIYDASNRATGIPARFSGSGSGTDFTLTISSLEPEDFAVYYCQQRSNWPPYTFGQGTKLEIK", "UNIT_OF_MEASURE": "µM", "RECORDED_RESULT": 0.00056}
{"BINDER": "30D12BF antibody (antibody, V domains shown) VH: QVQLVQSGAEVKKPGASVKVSCKASGYTFTSYDINWVRQATGQGLEWMGWLNPDSGVIRYAQKFQGRVTMTRDTSISTAYMELSSLRSEDTAVYYCAREWFGELPSYYFYSGMDVWGQGTTVTVSS VL: EIVLTQSPATLSLSPGERATLSCRASQSVSSYLAWYQQKPGQAPRLLIYDASNRATGIPARFSGSGSGTDFTLTISSLEPEDFAVYYCQQRSNWPPTFGPGTKVDIK", "UNIT_OF_MEASURE": "µM", "RECORDED_RESULT": 0.013}
{"BINDER": "39F12 antibody (antibody, IgG4, V domains shown, also called Mab06a; 39F12 IgG4) VH: QVQLVQSGAEVKKPGSSVKVSCKASGGTLSSYAFSWVRQAPGQGLEWMGGIIPFFGTTNYAQKFQGRVIITADESTNTAYMELSGLRSEDTAVYYCARDRDYYGLGSPFYYYGMDVWGQGTTVTVSS VL: EIVLTQSPDFQSVTPKEKVTITCRASQSIGSSLHWYQQKPDQSPKLLIKYASQSFSGVPSRFSGSGSGTDFTLTINSLEAEDAAAYYCHQSSSLPWTFGQGTKVEIK", "UNIT_OF_MEASURE": "µM", "RECORDED_RESULT": 0.016}
